Assay: Plasma pharmacokinetics of Compound 1 and metabolite 1-7 (LC-MS/MS) in Parts C, D and E
Format: in vivo, human
Conditions: human, plasma, oral, 300 mg/d, steady state; Part C, NC GT1b, 300 mg/d Compound 2 QD, n=6; read-out: Cmax SS
Measurement Kind: Cmax (ng/mL)
Write the answer as a number in ng/mL, unit excluded.

-- ask Bench note: what Cmax did C[C@@]1(F)[C@H](O)[C@@H](CO)O[C@H]1n1cnc2c(=O)[nH]c(N)nc21 [Metabolite 1-7] show?
-- reply 220

----------
Test: Plasma pharmacokinetics of Compound 1 and metabolite 1-7 (LC-MS/MS) in Parts C, D and E
Format: in vivo, human
Conditions: human, in vivo, 300 mg/d, steady state; Part C, NC GT1b, 300 mg/d Compound 2 QD, n=6; read-out: Tmax SS
Measurement Kind: Tmax (min)
Write the answer as a number in min, unit excluded.

-- ask Bench note: what Tmax did "CNc1nc(N)nc2c1ncn2[C@@H]1O[C@H](CO[P@@](=O)(N[C@@H](C)C(=O)OC(C)C)Oc2ccccc2)[C@@H](O)[C@@]1(C)F" show?
-- reply 30
